# Tested on: Klebsiella aerogenes DSM 30053
# protocol_text: growth (OD595) fold change vs plate DMSO controls (fold change (ratio)); higher = more growth
# protocol_conditions: incubation time: 27 h, anaerobic, 37 °C
Where a name gives a salt, the structure may show the parent alone.
Measured growth, listed per entry.
Note: the reply should be a number with no unit written.

{"columns": ["compound", "growth"],
 "data": [
  ["COc1cc(C(=O)NS(=O)(=O)c2ccccc2C)ccc1Cc1cn(C)c2ccc(NC(=O)OC3CCCC3)cc12 [Zafirlukast] (20 µM)", 0.99],
  ["CCC(=O)[C@@]1(C)[C@H](C)C[C@H]2[C@@H]3CCC4=CC(=O)C=C[C@]4(C)[C@H]3[C@@H](O)C[C@@]21C [Rimexolone] (20 µM)", 1.01],
  ["Cn1nnnc1SCC1=C(C(=O)O)N2C(=O)[C@@H](NC(=O)[C@H](O)c3ccccc3)[C@H]2SC1 [Cefamandole sodium salt] (20 µM)", 1.08]
]}

Ask | Supply growth value. Item: CN1C2CCCC1CC(NC(=O)c1nn(C)c3ccccc13)C2 (stereo unspecified) [Granisetron] (20 µM)
Reply | 1.01

Ask | Output growth of N[C@@H]1CCCCN(c2c(F)cc3c(=O)c(C(=O)O)cn(C4CC4)c3c2Cl)C1 [Besifloxacin hydrochloride] (20 µM)
Reply | 0.191

Ask | Quote growth reported for CC(C(=O)O)c1ccc(N2Cc3ccccc3C2=O)cc1 (stereo unspecified) [Indoprofen] (20 µM) please.
Reply | 0.973

Ask | Respond only with growth recorded for Cc1nc(C)c(Cl)c(O)c1Cl [Clopidol] (20 µM)
Reply | 1.04
